Answer each item with its documented IC50.
Target: human KDR (Homo sapiens, UniProt P35968)
Construct: GST-tagged recombinant kinase domain of the human KDR; GST
Sequence (P35968 834-1162 limits assumed): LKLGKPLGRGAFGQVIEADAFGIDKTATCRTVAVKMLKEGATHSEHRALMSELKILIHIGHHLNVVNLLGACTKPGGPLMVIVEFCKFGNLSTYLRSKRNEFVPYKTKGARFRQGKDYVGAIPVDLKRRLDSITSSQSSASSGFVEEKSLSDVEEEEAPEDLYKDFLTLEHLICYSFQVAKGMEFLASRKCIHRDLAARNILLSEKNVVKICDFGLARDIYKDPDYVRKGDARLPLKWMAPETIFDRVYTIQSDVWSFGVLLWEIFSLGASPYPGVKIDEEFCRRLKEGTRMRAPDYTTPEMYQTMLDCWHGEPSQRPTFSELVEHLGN
Assay: VEGFR2 Kinase (KDR) HTRF Assay
Conditions: GST-tagged kinase domain of human KDR, 10 μM ATP; read-out: KDR activity (assay 4)

Below are worked cases with known answers.
Compound	IC50
C[C@H](CO)Nc1nc(Nc2ccc(S(C)(=N)=O)cc2)ncc1C#Cc1ccccc1 (mixture of isomers)	< 500 nM
Cc1ccc(C#Cc2cnc(Nc3ccc(S(C)(=N)=O)cc3)nc2N[C@H](C)CO)cc1 (mixture of isomers)	< 500 nM
Cc1cc(C#Cc2cnc(Nc3cccc(S(C)(=N)=O)c3)nc2N[C@H](C)CO)ccc1F (mixture of isomers)	< 500 nM
CCc1ccc(C#Cc2cnc(Nc3ccc(S(C)(=N)=O)cc3)nc2N[C@H](C)CO)cc1 (mixture of isomers)	< 500 nM
Cc1cc(C#Cc2cnc(Nc3ccc(S(C)(=N)=O)cc3)nc2N[C@H](C)CO)ccc1F (mixture of isomers)	< 500 nM
C[C@H](CO)Nc1nc(Nc2ccc(S(C)(=N)=O)cc2)ncc1C#Cc1ccc(F)cc1 (mixture of isomers)	< 500 nM
CCOC(=O)N=S(C)(=O)c1ccc(Nc2ncc(C#Cc3cccc(O)c3)c(N[C@H](C)CO)n2)cc1 (mixture of isomers)	< 500 nM
CS(=N)(=O)c1cccc(Nc2ncc(C#Cc3cccc(O)c3)cn2)c1 (racemic)	< 500 nM

Now, please, on to the next compound.
Incoming: Quick one: IC50 for CC(C)NC(=O)N=S(C)(=O)c1cccc(Nc2ncc(C#Cc3cccc(O)c3)c(N[C@H](C)CO)n2)c1 (mixture of isomers) ?
Outgoing: < 500 nM

====

Target: CDK2/CycE (Homo sapiens)
Construct: GST
Experiment: CDK2/Cyclin E Kinase Assay
Conditions: CDK2/CycE HTRF, 10 μM ATP; read-out: CDK2 activity (assay 6)
pIC50: −log10 of the molar value.
Readout label: pIC50

Below are worked cases with known answers.
Molecule	pIC50
CCOC(=O)N=S(C)(=O)c1ccc(Nc2ncc(C#Cc3cccc(O)c3)c(N[C@H](C)CO)n2)cc1 (mixture of isomers)	5.00 to 6.00
Cc1ccc(C#Cc2cnc(Nc3ccc(S(C)(=N)=O)cc3)nc2N[C@H](C)CO)cc1 (mixture of isomers)	5.00 to 6.00
CCNc1nc(Nc2ccc(S(C)(=N)=O)cc2)ncc1C#Cc1ccc(OC)cc1 (racemic)	< 5.00
C[C@H](CO)Nc1nc(Nc2ccc(S(C)(=N)=O)cc2)ncc1C#Cc1ccc(F)cc1 (mixture of isomers)	< 5.00
CS(=N)(=O)c1cccc(Nc2ncc(C#Cc3cccc(O)c3)cn2)c1 (racemic)	< 5.00
Cc1cc(C#Cc2cnc(Nc3ccc(S(C)(=N)=O)cc3)nc2N[C@H](C)CO)ccc1F (mixture of isomers)	< 5.00

Now, please, on to the next molecule.
Incoming: Quick one: pIC50 for COc1ccc(C#Cc2cnc(Nc3ccc(S(C)(=N)=O)cc3)nc2N[C@H](C)CO)cc1 (mixture of isomers) ?
Outgoing: < 5.00

Ref: patent US8642611B2
